Catalogue of Emax values
- target.under.test: dopamine transporter (DAT) (Rattus norvegicus)
- Sequence (P23977 whole entry): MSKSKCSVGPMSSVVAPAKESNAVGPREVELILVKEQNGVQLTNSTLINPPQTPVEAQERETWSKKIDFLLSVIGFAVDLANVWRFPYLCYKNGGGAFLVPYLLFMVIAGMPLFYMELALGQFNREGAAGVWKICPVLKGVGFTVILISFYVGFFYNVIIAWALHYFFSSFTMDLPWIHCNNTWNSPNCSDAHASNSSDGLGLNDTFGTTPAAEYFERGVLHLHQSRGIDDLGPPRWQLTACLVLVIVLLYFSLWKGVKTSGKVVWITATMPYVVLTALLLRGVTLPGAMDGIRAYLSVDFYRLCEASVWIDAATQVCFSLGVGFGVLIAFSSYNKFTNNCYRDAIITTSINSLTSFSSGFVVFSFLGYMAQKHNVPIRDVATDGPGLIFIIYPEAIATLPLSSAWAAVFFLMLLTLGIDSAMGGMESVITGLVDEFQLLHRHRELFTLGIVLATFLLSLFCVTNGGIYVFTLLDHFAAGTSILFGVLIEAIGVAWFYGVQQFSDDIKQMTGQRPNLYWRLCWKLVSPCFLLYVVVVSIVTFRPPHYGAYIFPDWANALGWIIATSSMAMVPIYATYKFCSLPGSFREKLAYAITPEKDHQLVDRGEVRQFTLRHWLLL
- assay.notes: Dopamine reuptake ([^3H]dopamine uptake) inhibition in rat brain synaptosomes
- measurement.conditions: read-out: DA Uptake Emax (% I ± SD)
value.kind: Emax (%)

[[record]]
molecule = "Cc1cc2nccn2cc1-c1nc(NCC(C)(c2ccccc2)c2ccccc2)c2ccccc2n1"
unit_label = "%"
qual = "="
observed_measurement = 76

[[record]]
molecule = "CN1CCN(C(CNc2nc(-c3cnc4nccn4c3)nc3ccccc23)c2ccccc2)CC1 (centres unmarked)"
unit_label = "%"
qual = "="
observed_measurement = 71

[[record]]
molecule = "CC(C)C(CNc1nc(-c2ccc3nccn3c2)nc2ccccc12)c1ccccc1 (centres unmarked)"
unit_label = "%"
qual = "="
observed_measurement = 75

[[record]]
molecule = "c1ccc(C(CNc2nc(-n3cccn3)nc3ccccc23)c2ccccc2)cc1"
unit_label = "%"
qual = "<"
observed_measurement = 100

[[record]]
molecule = "c1ccc(C(CNc2nc(-c3ccc4nncn4c3)nc3ccccc23)c2ccccc2)cc1"
unit_label = "%"
qual = "="
observed_measurement = 68

[[record]]
molecule = "Cc1cc2nccn2cc1-c1nc(NC[C@H](c2ccccc2)n2cccc2)c2ccccc2n1"
unit_label = "%"
qual = "="
observed_measurement = 62

[[record]]
molecule = "CC(C)(C)OC(=O)N1CCCc2ccc(-c3nc(NCC(c4ccccc4)c4ccccc4)c4ccccc4n3)cc21"
unit_label = "%"
qual = "<"
observed_measurement = 100

[[record]]
molecule = "Cc1cc2nccn2cc1-c1nc(NCCc2cccnc2)c2ccccc2n1"
unit_label = "%"
qual = "="
observed_measurement = 73

